Source listed as PubChem BioAssay AID743396.

- System: mTEFS fibroblasts autofluorescence, GFP-channel imaging, 3 days
- PROCEDURE TEXT: compound fluorescence in GFP channel, mTEFS cells – imaging, mTEFS fibroblasts, cherry-pick, artefact control for X-chromosome reactivation project, dose response (AID 743396)
- EXPERIMENTAL PARAMETERS: cells pretreated with 5-aza-dC
Calls of active or inactive are those of the source.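 Rule for the calls: active = fitted curve reaches a 40% rise in fluorescent cells at or below the top valid dose; inactive = opposite-direction effect, or the rest.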
EXPERIMENTAL ENDPOINT: AC40

Consider the compound shown here: "CCOC(=O)Cn1c(=O)c(-c2cc(Br)ccc2N)nc2ccccc21" What is its recorded AC40?
> 19.5 µM (inactive)

More entries:
Please give the measured AC40 for this compound: "Cc1cc(C)c2cc3c(N)c(C(=O)Nc4c(C)[nH]c(=O)[nH]c4=O)sc3nc2c1"
> 19.5 µM (inactive)

What value of AC40 has been recorded for this entry: "Cc1ccc(NC(=O)/C=C/c2ccc([N+](=O)[O-])s2)cc1"
4.44 µM

Request the reported AC40 associated with "CCOC(=O)C1=C(O)/C(=C/c2cc(OC)c(O)c(OC)c2)SC1=Nc1ccc(OC)cc1"
> 19.5 µM (inactive)
